experimentalTarget: T1, native human ApoC3 (human, UniProt P02656 21-99, biotinylated in the captured-antigen assays (Tables 6 and 8); sites not stated)
T1 construct: also called nhuApoC3; native huApoC3
T1 sequence (P02656 21-99): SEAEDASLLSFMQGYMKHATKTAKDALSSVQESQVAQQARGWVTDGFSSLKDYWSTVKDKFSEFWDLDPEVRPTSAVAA
assayText: SPR, biotinylated antigen captured on streptavidin chip, IgG as analyte, pH 7.4
readout: koff (s⁻¹)
Numbers only; they are read as s⁻¹.

- binder: "29A05 IgG (antibody, V domains shown) VH: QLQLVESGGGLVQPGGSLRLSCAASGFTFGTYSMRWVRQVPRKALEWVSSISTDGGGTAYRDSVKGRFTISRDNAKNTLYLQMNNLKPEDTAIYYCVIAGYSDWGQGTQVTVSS VL: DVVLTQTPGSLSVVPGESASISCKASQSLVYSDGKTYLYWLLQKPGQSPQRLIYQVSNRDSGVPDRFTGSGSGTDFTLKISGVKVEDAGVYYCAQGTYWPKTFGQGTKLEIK"
  unitsOfMeasure: "s⁻¹"
  koff: "6.3e-05"

Proceeding to the next binder to report its koff.
So what's the measured koff for this one? 30D10 IgG (antibody, V domains shown) VH: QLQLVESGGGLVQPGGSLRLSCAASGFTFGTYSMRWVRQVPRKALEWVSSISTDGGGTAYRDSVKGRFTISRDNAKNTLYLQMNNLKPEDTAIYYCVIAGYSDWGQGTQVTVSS VL: DVVLTQTPGSLSVVPGESASISCTASQSLRHSDGRTYLYWLRQKPGQSPQRLIKRVSTRDPGVPDRFTGSGSGTDFTLKISGVRAEDAGVYYCAQGTYYPLTFGQGTKVELK
0.000126
